- test-protocol: Ratio of drug uptake in medulla to cerebellum in anesthetized cynomolgus monkey after 85 mins postinjection
- Format: ADME, organism-based, Macaca fascicularis
- measurement-conditions: in vivo
# reported Ratio; entries follow

- compound: "O=C(OCCC[18F])C1C2CCC(CC1c1cccc(/C=C\\Br)c1)N2 (stereo not given)"
  Ratio: 1.4
- compound: "O=C(OCC[18F])C1C2CCC(CC1c1cccc(/C=C\\Br)c1)N2 (stereo not given)"
  Ratio: 1.5
- compound: "O=C(OCCC[18F])C1C2CCC(CC1c1cccc(/C=C\\I)c1)N2 (stereo not given)"
  Ratio: 1.3
- compound: "O=C(OCC[18F])C1C2CCC(CC1c1cccc(/C=C\\I)c1)N2 (stereo not given)"
  Ratio: 1.3
- compound: "O=C(OCC[18F])C1C2CCC(CC1c1ccc(/C=C\\I)cc1)N2 (stereo not given)"
  Ratio: 1.8

* * *

- Test system: Pons
- test-protocol: Drug uptake in anesthetized cynomolgus monkey brain pons after 22.5 mins postinjection
- Format: ADME, organism-based, Macaca fascicularis
- measurement-conditions: in vivo, 0.375 h
Decision: Drug uptake compared against 4; not below it gives criterion met, below it gives criterion not met.

- compound: "O=C(OCC[18F])C1C2CCC(CC1c1cccc(/C=C\\I)c1)N2 (stereo not given)"
  measured-on: "Pons"
  assigned-label: "criterion not met"
- compound: "O=C(OCCC[18F])C1C2CCC(CC1c1cccc(/C=C\\Br)c1)N2 (stereo not given)"
  measured-on: "Pons"
  assigned-label: "criterion met"
- compound: "O=C(OCC[18F])C1C2CCC(CC1c1ccc(/C=C\\I)cc1)N2 (stereo not given)"
  measured-on: "Pons"
  assigned-label: "criterion not met"
- compound: "O=C(OCC[18F])C1C2CCC(CC1c1cccc(/C=C\\Br)c1)N2 (stereo not given)"
  measured-on: "Pons"
  assigned-label: "criterion not met"

* * *

# reported Ratio; entries follow
- test-protocol: Ratio of drug uptake in putamen to cerebellum in anesthetized cynomolgus monkey after 3.5 mins postinjection
- Assay type: ADME, organism-based, Macaca fascicularis
- measurement-conditions: in vivo
assay-metric: Ratio

- compound: "O=C(OCCC[18F])C1C2CCC(CC1c1cccc(/C=C\\Br)c1)N2 (centres undefined)"
  assay-metric: "Ratio"
  assay-value: 0.8
- compound: "O=C(OCCC[18F])C1C2CCC(CC1c1cccc(/C=C\\I)c1)N2 (centres undefined)"
  assay-metric: "Ratio"
  assay-value: 0.8
- compound: "O=C(OCC[18F])C1C2CCC(CC1c1ccc(/C=C\\I)cc1)N2 (centres undefined)"
  assay-metric: "Ratio"
  assay-value: 1
- compound: "O=C(OCC[18F])C1C2CCC(CC1c1cccc(/C=C\\Br)c1)N2 (centres undefined)"
  assay-metric: "Ratio"
  assay-value: 0.9

* * *

- System: Pons
- test-protocol: Drug uptake in anesthetized cynomolgus monkey brain pons after 3.5 mins postinjection
- Format: ADME, organism-based, Macaca fascicularis
- measurement-conditions: in vivo
assay-metric: Drug uptake

- molecule: "O=C(OCC[18F])C1C2CCC(CC1c1cccc(/C=C\\I)c1)N2 (stereo not given)"
  assay-value: 0.77
- molecule: "O=C(OCCC[18F])C1C2CCC(CC1c1cccc(/C=C\\I)c1)N2 (stereo not given)"
  assay-value: 1.71
- molecule: "O=C(OCC[18F])C1C2CCC(CC1c1ccc(/C=C\\I)cc1)N2 (stereo not given)"
  assay-value: 0.67
- molecule: "O=C(OCC[18F])C1C2CCC(CC1c1cccc(/C=C\\Br)c1)N2 (stereo not given)"
  assay-value: 0.82
- molecule: "O=C(OCCC[18F])C1C2CCC(CC1c1cccc(/C=C\\Br)c1)N2 (stereo not given)"
  assay-value: 1.87

* * *

- System: Midbrain
- test-protocol: Drug uptake in anesthetized cynomolgus monkey brain midbrain after 95 mins postinjection
- Format: ADME, organism-based, Macaca fascicularis
- Set-up: unit not given here
- measurement-conditions: in vivo
assay-metric: Drug uptake

- compound: "O=C(OCC[18F])C1C2CCC(CC1c1ccc(/C=C\\I)cc1)N2 (stereo not given)"
  assay-metric: "Drug uptake"
  assay-value: 4.6
- compound: "O=C(OCC[18F])C1C2CCC(CC1c1cccc(/C=C\\Br)c1)N2 (stereo not given)"
  assay-metric: "Drug uptake"
  assay-value: 4.91
- compound: "O=C(OCCC[18F])C1C2CCC(CC1c1cccc(/C=C\\Br)c1)N2 (stereo not given)"
  assay-metric: "Drug uptake"
  assay-value: 5.79
- compound: "O=C(OCC[18F])C1C2CCC(CC1c1cccc(/C=C\\I)c1)N2 (stereo not given)"
  assay-metric: "Drug uptake"
  assay-value: 4.55
- compound: "O=C(OCCC[18F])C1C2CCC(CC1c1cccc(/C=C\\I)c1)N2 (stereo not given)"
  assay-metric: "Drug uptake"
  assay-value: 4.77

* * *

- Tested on: Thalamus
- test-protocol: Drug uptake in anesthetized cynomolgus monkey brain thalamus after 155 mins postinjection
- Format: ADME, organism-based, Macaca fascicularis
- Design: unit not given here
- measurement-conditions: in vivo
assay-metric: Drug uptake

- compound: "O=C(OCCC[18F])C1C2CCC(CC1c1cccc(/C=C\\I)c1)N2 (stereo not given)"
  assay-value: 3.73
- compound: "O=C(OCCC[18F])C1C2CCC(CC1c1cccc(/C=C\\Br)c1)N2 (stereo not given)"
  assay-value: 4.27
- compound: "O=C(OCC[18F])C1C2CCC(CC1c1cccc(/C=C\\Br)c1)N2 (stereo not given)"
  assay-value: 3.64
- compound: "O=C(OCC[18F])C1C2CCC(CC1c1cccc(/C=C\\I)c1)N2 (stereo not given)"
  assay-value: 3.03
- compound: "O=C(OCC[18F])C1C2CCC(CC1c1ccc(/C=C\\I)cc1)N2 (stereo not given)"
  assay-value: 3.97

* * *

- test-protocol: Ratio of drug uptake in caudate to cerebellum in anesthetized cynomolgus monkey after 95 mins postinjection
- Format: ADME, organism-based, Macaca fascicularis
- measurement-conditions: in vivo

- compound: "O=C(OCC[18F])C1C2CCC(CC1c1cccc(/C=C\\I)c1)N2 (stereo not given)"
  Ratio: 1.3
- compound: "O=C(OCCC[18F])C1C2CCC(CC1c1cccc(/C=C\\Br)c1)N2 (stereo not given)"
  Ratio: 1.3
- compound: "O=C(OCC[18F])C1C2CCC(CC1c1ccc(/C=C\\I)cc1)N2 (stereo not given)"
  Ratio: 1.4
- compound: "O=C(OCCC[18F])C1C2CCC(CC1c1cccc(/C=C\\I)c1)N2 (stereo not given)"
  Ratio: 1.1
- compound: "O=C(OCC[18F])C1C2CCC(CC1c1cccc(/C=C\\Br)c1)N2 (stereo not given)"
  Ratio: 1.4

* * *

- test-protocol: Drug uptake in anesthetized cynomolgus monkey brain cerebellum after 22.5 mins postinjection
- Assay type: ADME, organism-based, Macaca fascicularis
- measurement-conditions: in vivo, 0.375 h
# reported Drug uptake; entries follow
assay-metric: Drug uptake

- compound: "O=C(OCCC[18F])C1C2CCC(CC1c1cccc(/C=C\\Br)c1)N2 (stereo not drawn)"
  assay-metric: "Drug uptake"
  assay-value: 5.9
- compound: "O=C(OCC[18F])C1C2CCC(CC1c1cccc(/C=C\\I)c1)N2 (stereo not drawn)"
  assay-metric: "Drug uptake"
  assay-value: 4.02
- compound: "O=C(OCC[18F])C1C2CCC(CC1c1ccc(/C=C\\I)cc1)N2 (stereo not drawn)"
  assay-metric: "Drug uptake"
  assay-value: 2.63

* * *

# reported Drug uptake; entries follow
- Tested on: Thalamus
- test-protocol: Drug uptake in anesthetized cynomolgus monkey brain thalamus after 135 mins postinjection
- Type: ADME, organism-based, Macaca fascicularis
- Set-up: unit not given here
- measurement-conditions: in vivo, 2.25 h
assay-metric: Drug uptake

- compound: "O=C(OCC[18F])C1C2CCC(CC1c1cccc(/C=C\\Br)c1)N2 (stereo not drawn)"
  assay-metric: "Drug uptake"
  assay-value: 4.03
- compound: "O=C(OCCC[18F])C1C2CCC(CC1c1cccc(/C=C\\I)c1)N2 (stereo not drawn)"
  assay-metric: "Drug uptake"
  assay-value: 4.02
- compound: "O=C(OCC[18F])C1C2CCC(CC1c1ccc(/C=C\\I)cc1)N2 (stereo not drawn)"
  assay-metric: "Drug uptake"
  assay-value: 3.99

* * *

- System: Caudate
- test-protocol: Drug uptake in anesthetized cynomolgus monkey brain caudate after 18.5 mins postinjection
- Type: ADME, organism-based, Macaca fascicularis, Caudate nucleus
- measurement-conditions: in vivo
# reported Drug uptake; entries follow

- molecule: "O=C(OCC[18F])C1C2CCC(CC1c1cccc(/C=C\\I)c1)N2 (centres undefined)"
  measured-on: "Caudate"
  Drug uptake: 3.07
- molecule: "O=C(OCC[18F])C1C2CCC(CC1c1cccc(/C=C\\Br)c1)N2 (centres undefined)"
  measured-on: "Caudate"
  Drug uptake: 2.8
- molecule: "O=C(OCCC[18F])C1C2CCC(CC1c1cccc(/C=C\\I)c1)N2 (centres undefined)"
  measured-on: "Caudate"
  Drug uptake: 3.38
- molecule: "O=C(OCC[18F])C1C2CCC(CC1c1ccc(/C=C\\I)cc1)N2 (centres undefined)"
  measured-on: "Caudate"
  Drug uptake: 1.84
